- MEASUREMENT_TARGET: synthetic Aβ(1–40) fibrils (Homo sapiens)
- ASSAY_PROCEDURE: Displacement of 5 nM [3H]-1a
- Assay type: binding
pEC50: −log10 of the molar value.
MEASURED_QUANTITY: pEC50

* O=C(O)c1cc(/C=C/c2ccc(/C=C/c3ccc(O)c(C(=O)O)c3)c(Br)c2)ccc1O | 6.64
* O=C(O)c1cc(/N=N/c2ccc(-c3ccc(/N=N/c4ccc(O)c(C(=O)O)c4)cc3)cc2)ccc1O | 5.05
* Nc1c(/N=N/c2ccc(-c3ccc(/N=N/c4cc(S(=O)(=O)O)c5ccccc5c4N)cc3)cc2)cc(S(=O)(=O)O)c2ccccc12 | 5.64

* * *

Each item that follows carries a reported EC50.
- MEASUREMENT_TARGET: synthetic Aβ(1–40) fibrils (Homo sapiens, UniProt P05067)
- Sequence (P05067 672-711): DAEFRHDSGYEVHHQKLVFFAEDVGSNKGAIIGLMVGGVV
- ASSAY_PROCEDURE: Displacement of 5 nM [3H]-1a
- Assay type: binding
MEASURED_QUANTITY: EC50

* COc1ccc2cc([C@H](C)C(=O)O)ccc2c1 | > 10 µM
* CC(C)Cc1ccc(C(C)C(=O)O)cc1 (stereo not shown) | > 10 µM
* Oc1ccc(/C=C/c2ccc(/C=C/c3ccc(O)cc3)c(Br)c2)cc1 | > 10 µM
* COc1cc(/C=C/c2ccc(N)cc2)ccc1/C=C/c1ccc(N)cc1 | > 10 µM
